Assay: in vivo
Details: male, CD-1, mouse, iv, 5 mg/kg

compound: COc1cccc2c1C(=O)c1c(O)c3c(c(O)c1C2=O)C[C@@](O)(C(=O)CO)C[C@@H]3O[C@H]1C[C@H](N)[C@H](O)[C@H](C)O1 [Naked DXR, doxorubicin]
AUC [ng·h/mL]: 688

---

Experiment: in vivo
Details: male, CD-1, mouse, iv

compound: COc1cccc2c1C(=O)c1c(O)c3c(c(O)c1C2=O)C[C@@](O)(C(=O)CO)C[C@@H]3O[C@H]1C[C@H](N)[C@H](O)[C@H](C)O1 [Naked DXR, doxorubicin]
AUC (ng·h/mL): 688
